System: Vero E6 infected with SARS-CoV-2
Experiment summary: inhibition of SARS-CoV-2 cytopathic effect; higher = more antiviral protection, active = above 15
Test settings: 833.33 nM; 48 h
Assay readout: inhibition of SARS-CoV-2 cytopathic effect (%)
Give bare numbers, in %.

Check out these entries, answers already filled in.
>  <Compound>
NC(=O)c1cn(Cc2c(F)cccc2F)nn1 [rufinamide]

>  <Test target>
Vero E6 infected with SARS-CoV-2

>  <Measured>
1.75

$$$$
>  <Compound>
CC(C)=CCC/C(C)=C/CC/C(C)=C/CC[C@]1(C)CCc2cc(O)cc(C)c2O1 [delta-tocotrienol]

>  <Test target>
Vero E6 infected with SARS-CoV-2

>  <Measured>
7.95

$$$$
>  <Compound>
CCOc1ccccc1C(=O)O [2-ethoxybenzoic-acid]

>  <Test target>
Vero E6 infected with SARS-CoV-2

>  <Measured>
0.66

$$$$

Could you now look at the following compound, please?
CC(=O)[C@@]12O[C@](C)(c3ccccc3)O[C@@H]1C[C@H]1[C@@H]3CCC4=CC(=O)CC[C@]4(C)[C@H]3CC[C@@]12C [algestone-acetophenide] yielded inhibition of SARS-CoV-2 cytopathic effect of 2.43

Ref: the supplement of paper PMC13380429
